These entries and their values trace back to patent US20140179593A1.

Biological target: T1, yE1 for yNedd8 (Ula1-Uba3) (Saccharomyces cerevisiae, UniProt Q12059 1-462, limits assumed)
T1 construct: Heterodimeric E1 expressed in E. coli as described in earlier publications
T1 sequence 1: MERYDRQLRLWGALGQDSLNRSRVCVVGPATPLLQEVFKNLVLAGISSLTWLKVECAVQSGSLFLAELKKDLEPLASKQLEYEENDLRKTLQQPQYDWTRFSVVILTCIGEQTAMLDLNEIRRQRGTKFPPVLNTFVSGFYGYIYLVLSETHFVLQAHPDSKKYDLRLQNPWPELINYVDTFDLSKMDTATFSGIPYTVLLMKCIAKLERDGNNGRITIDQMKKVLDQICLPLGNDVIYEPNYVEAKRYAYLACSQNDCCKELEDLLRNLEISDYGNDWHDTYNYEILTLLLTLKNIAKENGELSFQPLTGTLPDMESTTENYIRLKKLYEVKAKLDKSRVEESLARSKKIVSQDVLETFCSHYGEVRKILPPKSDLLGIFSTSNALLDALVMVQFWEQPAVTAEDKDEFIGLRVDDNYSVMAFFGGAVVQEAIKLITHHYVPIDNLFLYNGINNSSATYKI
T1 sequence 2: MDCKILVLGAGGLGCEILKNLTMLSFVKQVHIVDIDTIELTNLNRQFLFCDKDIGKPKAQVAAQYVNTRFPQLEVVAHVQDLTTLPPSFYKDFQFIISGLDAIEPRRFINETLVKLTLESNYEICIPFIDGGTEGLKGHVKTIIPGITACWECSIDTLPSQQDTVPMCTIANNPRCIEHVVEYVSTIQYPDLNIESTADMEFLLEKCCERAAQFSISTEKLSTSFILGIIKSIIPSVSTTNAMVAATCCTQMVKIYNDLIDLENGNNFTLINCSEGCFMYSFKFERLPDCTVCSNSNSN
Assay: ITC, peptide titrated into yE1
Answer each item with its documented pKd.
Give bare numbers, as −log10 of the molar value.

binder	pKd
Ac-MLKLRQLQKKKQKENENSSSIQPN-NH2 (Synthetic peptide; also called yUbc12^Ac1-24) [Acetyl-yUbc12^1-24 peptide]	7.80
H-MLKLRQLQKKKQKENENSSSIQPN-NH2 (Synthetic peptide, N-terminal extension of yeast Ubc12) [yUbc12^1-24 peptide (free N-terminus)]	7.15

Now take the following binder into account.
Could you share which pKd value was measured for Ac-LKLRQLQKKKQKENENSSSIQPN-NH2 (Synthetic peptide lacking Met1) [Acetyl-yUbc12^2-24 peptide] ? 5.80
